Origin of measurements: the supplement of paper PMC6555819

Tested on: PXR:RXRa (NR concentration 270 nM, RXRa partner concentration 90 nM)
Experiment: PBM binding z-score (relative to random genomic background probes); higher = stronger binding; sequences stand for … in GC…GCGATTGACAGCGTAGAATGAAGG
reported_property: PBM binding z-score
No unit in the answer, only the number.

# residue_codes, assayed_target, reported
rows = [
    ("GCTAGCAGGCCACTTGGGTCACTCAATGACGGGC", "PXR:RXRa (NR concentration 270 nM, RXRa partner concentration 90 nM)", 0.269),
    ("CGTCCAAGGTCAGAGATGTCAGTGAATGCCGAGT", "PXR:RXRa (NR concentration 270 nM, RXRa partner concentration 90 nM)", 2.43),
    ("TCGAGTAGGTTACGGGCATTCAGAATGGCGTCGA", "PXR:RXRa (NR concentration 270 nM, RXRa partner concentration 90 nM)", 0.127),
]

Ask: I am curious: what PBM binding z-score value has been reported for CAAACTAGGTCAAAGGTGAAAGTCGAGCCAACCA ?
Reply: 4.59

Ask: Proceed to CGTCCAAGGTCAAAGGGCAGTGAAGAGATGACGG
Reply: 4.98

Ask: Proceed to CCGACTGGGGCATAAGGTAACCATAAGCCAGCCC
Reply: -0.534

Ask: Proceed to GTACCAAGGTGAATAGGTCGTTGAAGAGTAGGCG
Reply: 1.12

Ask: Proceed to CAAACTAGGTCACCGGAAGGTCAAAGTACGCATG
Reply: 6.54

Ask: Proceed to GGAAAGAGGGCAAAGTTGATAGCATCTGTCGACG
Reply: 1.77

Ask: Proceed to GATACCGGGTCAGCTAGAGGCCAGAGTATGGAAA
Reply: 2.41

Ask: Proceed to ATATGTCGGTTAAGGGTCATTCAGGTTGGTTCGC
Reply: 5.03

----------
Consider the following sequences and their measured PBM binding z-score readings.
Test system: LXRa homodimer (NR concentration 270 nM)
Assay: PBM binding z-score (relative to random genomic background probes); higher = stronger binding; sequences stand for … in GC…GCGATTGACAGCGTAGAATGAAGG
No unit in the answer, only the number.

Record excerpt, results attached:
# residue_codes, PBM binding z-score
records = [
    ("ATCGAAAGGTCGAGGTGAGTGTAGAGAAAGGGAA", 0.118),
    ("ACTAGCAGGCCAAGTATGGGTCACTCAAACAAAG", -0.148),
    ("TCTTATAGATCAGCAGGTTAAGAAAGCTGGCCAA", -0.273),
    ("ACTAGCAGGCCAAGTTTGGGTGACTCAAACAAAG", -0.818),
    ("TAGCCTAGGTCATTCACGGGCCAGTATAGAAAGC", 0.702),
    ("TCGCGTAGGTTAGTCGGGGCATTCAGCCAACATA", -0.337),
    ("ATCGAAAGGTCGAAGGTGGGTATACCCACCCGAA", 0.0928),
    ("CCTCTGAGGACAGAAGGTCAGAGCTGTCCGCTTT", 0.0206),
    ("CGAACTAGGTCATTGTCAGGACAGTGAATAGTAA", 0.611),
    ("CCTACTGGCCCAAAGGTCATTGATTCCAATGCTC", 4.37),
]

Ask: I am curious: what PBM binding z-score value has been reported for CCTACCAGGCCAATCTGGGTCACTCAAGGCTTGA ?
Reply: 0.0755

Ask: Proceed to ATACCAAGGTAATCGTGAGGTCGTTGATACTAAC
Reply: 0.673
